Recorded values, source the RepoRT retention time repository.

Measured log10(LC retention time), listed per entry for reference.
assay_details: Waters ACQUITY UPLC HSS T3, 0.4 mL/min; A: water + 0.1% formic acid; B: acetonitrile + 0.1% formic acid; gradient (min/%B) 0/5 1.5/5 12/95 14/95 14.01/100 17/100
settings: stereoisomer not certain
experimental_readout: log10(LC retention time) (log10 of the value in min)

compound	log10(LC retention time)
C[N+](C)(C)CCOP(=O)([O-])O	-0.12
CC(C)C(CCC(C)C1CC(O)C2C1(C)CCC1C3(C)CCC(OC4OCC(O)C(O)C4O)CC3C(O)CC12O)OC1OCC(O)C(O)C1O (configuration not stated)	0.75
CC(NC(=O)C(N)CC(=O)O)NC(=O)N(C)C(C)(C)C (configuration not stated)	-0.08
NCC1CCC(C(=O)O)CC1 (configuration not stated)	-0.08
O=c1[nH]cnc2nc[nH]c12	0.04
COc1cc(CCCO)ccc1OC(CO)COC1OCC(O)C(O)C1O (configuration not stated)	-0.12
CCCCC(CC)CS (configuration not stated)	-0.12
CCCCCCC=CCCCCCCCCCC(=O)OC(CCC(=O)[O-])[N+](C)(C)C (configuration not stated)	0.98
CCCCCC(O)C=CC1=CCC(=O)C1CC=CCCCC(=O)O (configuration not stated)	0.70
CCCCCCCCCCCCCCCCCC(=O)NC(Cc1ccc(O)cc1)C(=O)O (configuration not stated)	0.96
CC1=C2C(CC3(C)OC3CCC3(C)OC3C2O)OC1=O (configuration not stated)	0.80
CC1CCC2(C(=O)O)CCC3(C)C(=CCC4C5(C)CCC(OC(=O)c6ccccc6)C(C)(C)C5C(=O)CC43C)C2C1C (configuration not stated)	1.04
CC(C)=CCCC(C)(O)C1CCC2(C)C1C(O)CC1C3(C)CCC(OC4OC(CO)C(O)C(O)C4OC4OC(CO)C(O)C(O)C4O)C(C)(C)C3CCC12C (configuration not stated)	0.99
CCCCCCCCCCCCCCCCCCCCCCCCC(=O)NCC(=O)O	0.99
CC(N)C(=O)O (configuration not stated)	-0.09
CCO[SiH](CCCSCCC[SiH](OCC)OCC)OCC	0.01
CCC=CCC=CCC=CCC=CCC=CCC=CCCC(=O)OC(CO)COP(=O)(O)OCCN (configuration not stated)	0.67
CC1(C)OC2(CO)CCC1CC2OC1OC(CO)C(O)C(O)C1O (configuration not stated)	0.60
CC(C)CC(N)C(=O)O (configuration not stated)	0.12
CC12CCC(O)(CC1OC1OC(CO)C(O)C(O)C1O)C(C)(C)O2 (configuration not stated)	0.60
CC(=O)NC(CC(C)C)C(=O)NC(CC(C)C)C(=O)NC(C=O)CCCN=C(N)N (configuration not stated)	1.09
CC(=O)OC(CC(=O)[O-])C[N+](C)(C)C (configuration not stated)	-0.08
CN1CC(=O)NC1=N	-0.10
CC(C)OC(=O)C(C(=O)OC(C)C)=C1SCCS1	0.06
CC1CCC(C(C)(O)COC2OC(CO)C(O)C(O)C2O)CC1O (configuration not stated)	0.71
C[N+](C)(C)CCCC(=O)[O-]	-0.11
CCCCCCCCCCCCCCCCCC(=O)OCC(O)COP(=O)(O)OCC(O)CO (configuration not stated)	0.75
CCCCCC(O)C=CC1C(O)CC(O)C1CC(=O)CCC(=O)O (configuration not stated)	0.93
CC(=O)OCCC(N)C(=O)O (configuration not stated)	-0.04
CCCCCCCCCCCCCCCCCCOC(=O)C(O)(CC(=O)O)CC(=O)O	1.02
C=C1CCC2C(OC(=O)C2(O)CO)C2C(C)C(=O)CC12 (configuration not stated)	0.80
CCCCC=CCCCCCCCC(=O)OCC(COP(=O)(O)OCC(N)C(=O)O)OC(=O)CCCCCCCCCCC (configuration not stated)	0.73

---

assay_details: Waters ACQUITY UPLC HSS T3, 0.4 mL/min; A: water + 0.1% formic acid; B: acetonitrile + 0.1% formic acid; gradient (min/%B) 0/5 1.5/5 12/95 14/95 14.01/100 17/100
settings: stereoisomer not certain
Classification by LC retention time follows these ranges: c1: < 1 min; c2: ≥ 1 min and < 5 min; c3: ≥ 5 min

>>> df
                                    compound  assigned_category
 0  CC1CCC2C(C)C3C(CC4C5CC=C6CC(OC7OC(CO)C(O)C(OC8OC(CO)C(O)C(O)C8O)C7O)CCC6(C)C5CCC43C)N2C1 (configuration not stated)                 c3
 1  C=C(CCC)C(N)C(=O)O (configuration not stated)                 c1
 2  C=C(C)C1CCC2(C(=O)O)CCC3(C)C(CCC4C5(C)CC(O)C(OC(=O)C=Cc6ccc(O)cc6)C(C)(C)C5CCC43C)C12 (configuration not stated)                 c3
 3  C=CCC=CCC=CCCCCCCCC(C(=O)OC)C(=O)C(=CC(=O)OC)OC (configuration not stated)                 c3
 4  Nc1nc2c(c(=O)[nH]1)NC(C(O)C(O)COP(=O)(O)OP(=O)(O)OP(=O)(O)O)C(O)N2O (configuration not stated)                 c3
 5  CC1(C)OC2(C)C(O)CC1CC2OC1OC(CO)C(O)C(O)C1O (configuration not stated)                 c2
 6  CCC(C)C(C(=O)NC(C(=O)NC1C(=O)NC(Cc2c[nH]c3ccccc23)C(=O)NCC(=O)c2ccc(cc2)OC1(C)C)C(C)C)N(C)C (configuration not stated)                 c3
 7  CC(C=CCC1C(=O)CCC1CC(=O)O)OC1OC(CO)C(O)C(O)C1O (configuration not stated)                 c1
 8  CCCCCC=CCC(O)CC=CC=CC(SCC(N)C(=O)O)C(O)CCCC(=O)O (configuration not stated)                 c3
 9  O=C(OCC1OC(Oc2ccc(C=Cc3cc(O)cc(O)c3)cc2O)C(O)C(O)C1O)c1cc(O)c(O)c(O)c1 (configuration not stated)                 c2
10  COC(=O)C1(OC(C)=O)CC23CCC4C(C)(O)CCCC4(C)C2CCC1C3 (configuration not stated)                 c3
11  Nc1nc2c(ncn2C2CC(O)C(COP(=O)(O)O)O2)c(=O)[nH]1 (configuration not stated)                 c1
12  CCCCCC(N)C(=O)O (configuration not stated)                 c1
13                     O=c1[nH]cnc2[nH]ncc12                 c2
14  CC(=O)NC(CO)C(=O)O (configuration not stated)                 c1
15  CC(O)C1CCC2C3CCC4=CC(=O)CCC4(C)C3CCC12C (configuration not stated)                 c3
16  COc1cc2c(c(OC)c1CC=C(C)C)CC(c1ccc(O)c3c1OC(C)(C)C=C3)CO2 (configuration not stated)                 c2
17  CC1(OC2OC(CO)C(O)C(O)C2O)CC(O)C2(C(C)(C)O)CC12 (configuration not stated)                 c2
18  CNC(CCC(=O)O)C(=O)O (configuration not stated)                 c1

---

assay_details: Waters ACQUITY UPLC HSS T3, 0.4 mL/min; A: water + 0.1% formic acid; B: acetonitrile + 0.1% formic acid; gradient (min/%B) 0/5 1.5/5 12/95 14/95 14.01/100 17/100
settings: stereoisomer not certain
LC retention time under 6 min gets MET, anything at or over 6 min gets NOT MET.

>>> print(df.to_string())
                                    molecule  assigned_category
 0          COC1CCC(=O)N1 (stereo not given)                MET
 1  Cc1c(C)c(C(=O)C(C)O)n2c1CCC2 (stereo not given)                MET
 2         CSCCC(N)C(=O)O (stereo not given)                MET
 3                  O=C(O)CCCSCCCCSCCCC(=O)O                MET
 4  CCCC(=O)OC(CC(=O)[O-])C[N+](C)(C)C (stereo not given)                MET
 5  CC1CCC2(NC1)OC1CC3C4CC=C5CC(OC6OC(CO)C(OC7OC(C)C(O)C(O)C7O)C(O)C6O)CCC5(C)C4CCC3(C)C1C2C (stereo not given)            NOT MET
 6  CN1CC(c2ccc(O)cc2)OC1(C)C (stereo not given)                MET
 7  C=Cc1c2[nH]c(c1C)Cc1[nH]c(c(CCC(=O)O)c1C)Cc1[nH]c(c(C)c1CCC(=O)O)Cc1[nH]c(c(C)c1C=C)C2                MET
 8  CCC=CCC(O)C=CC=CC=CC=CC(O)C(O)CC=CCCC(=O)O (stereo not given)                MET
 9  CCCCCCC=CCCCCCCCC(=O)OC(CO)COP(=O)(O)OCCN (stereo not given)                MET
10  CC1(C)OC2(C)CC(O)C1CC2OC1OC(CO)C(O)C(O)C1O (stereo not given)                MET
11  CC(CCc1ccccc1)NCC(O)c1ccc(O)c(C(N)=O)c1 (stereo not given)                MET
12  Cc1cc(O)cc(O)c1C(=O)OC1CC2(C)C3CC(C)(C)CC3C=C(C=O)C12 (stereo not given)            NOT MET
13  CCC(C)C(=O)OC1CC(C)(O)C=C2C=CC(C)C(CCC3CC(O)CC(=O)O3)C21 (stereo not given)                MET
14                        NCCCCCCCCCCCC(=O)O            NOT MET
15     OC1CC2CC(O)C(C1)N2 (stereo not given)                MET
16                    CNc1ccccc1C(=O)OCC(C)C                MET
17  CC1C(=O)OC2C3=C(C(=O)CC3(C)O)C(C)(O)CCC12 (stereo not given)            NOT MET
18                                 CNCC(=O)O                MET
19  Nc1ncnc2c1ncn2C1OC(CO)C(OP(=O)(O)O)C1O (stereo not given)                MET
20  C=CC1(CO)CCC(C(C)(C)OC2OC(CO)C(O)C(O)C2O)O1 (stereo not given)                MET
21  CCCCCC(=O)OCCC(CCC)SC (stereo not given)                MET
22             CCCCCC(C)S (stereo not given)                MET
23  CC1(C)C2C(O)CC(C)(C2O)C1OC1OC(CO)C(O)C(O)C1O (stereo not given)                MET
24                                 NCCC(=O)O                MET
25  CCCCCC(O)C=CC=CCC=CCC=CCCCC(=O)NCCS(=O)(=O)O (stereo not given)                MET
26  CC1=CC(=O)CC(C)(C)C1(O)CCC(C)OC1OC(COC2OCC(O)(CO)C2O)C(O)C(O)C1O (stereo not given)                MET
27  CC(=O)C1OC1(O)C(C)=CC=CC(C)=CC=CC=C(C)C=CC=C(C)C=CC1=C(C)CCCC1(C)C (stereo not given)            NOT MET
28  CCCCCC=CCC(O)C=CC=CCC=CCCCC(=O)NCCS(=O)(=O)O (stereo not given)                MET
29  O=C(O)CCCC(O)C=CC=CCCC(O)CC=CCCCCC(O)(O)O (stereo not given)            NOT MET
30  CCC(C(=O)CC(C)C1=C(O)C(=O)C2C3CCC4CC(OC5OC(C(=O)O)C(O)C(O)C5O)CCC4(C)C3CCC12C)C(C)C (stereo not given)            NOT MET
31  CC1CCC2(C(=O)O)CCC3(C)C(=CCC4C5(C)CC(O)C(OC(=O)C=Cc6ccc(O)cc6)C(C)(C)C5CCC43C)C2C1C (stereo not given)            NOT MET
32  CC1=CC(c2c(O)c(C(=O)CCc3ccccc3)c(O)c(C3C=C(C)CCC3C(C)C)c2O)C(C(C)C)CC1 (stereo not given)            NOT MET
33  CC(C)=CC1c2[nH]c3ccccc3c2CC2C(=O)N3CCCC3C(=O)N21 (stereo not given)                MET
34  CC(C)=CCCC(C)(O)C1CCC2(C)C1C(O)CC1C3(C)CCC(OC4OC(COC5OCC(O)C(O)C5O)C(O)C(O)C4O)C(C)(C)C3CCC12C (stereo not given)            NOT MET
35  CCCCCC=CCC=CCCCCCCCC(=O)OCC(COP(=O)(O)OCC(O)CO)OC(=O)CCCCCCCC=CCCCCCC (stereo not given)            NOT MET
36  CC(=O)C1CCC2C3CCC4CC(=O)CCC4(C)C3CCC12C (stereo not given)            NOT MET
37  CCC(C)C(=O)OC(CC(=O)[O-])C[N+](C)(C)C (stereo not given)                MET
38     CCCCCCOC(=O)CC(C)S (stereo not given)                MET
39  CC(CCC(=O)NCCS(=O)(=O)O)C1CCC2C3C(O)CC4CC(O)CCC4(C)C3CC(O)C12C (stereo not given)                MET
40  C=C1C(=O)OC2C1CC=C1CC(C)(CCC1OO)C2O (stereo not given)            NOT MET
41  CC(=O)C1CCC2C3CC=C4CC(O)CCC4(C)C3CCC12C (stereo not given)            NOT MET
42  CC1(C)C(O)CC(O)C23C(=O)OC4OCC(=CCC12)C43 (stereo not given)            NOT MET
43                      CC(=O)OCC[N+](C)(C)C                MET
44                          Nc1ccnc(=O)[nH]1                MET
